tested on: MDA-MB-435; experiment: NCI tumour cell line growth inhibition, 48 h
attribute_measured: TGI (µM)
State the answer as a number, implicitly in µM.

>>> recorded_value("C=[CH][Sn]([CH]=C)([O]c1cccc2cccnc12)[O]c1cccc2cccnc12")
40.8
>>> recorded_value("CSc1nc(NC(C)C)c2c(n1)Sc1nc3ccccc3n1C2O (stereo unspecified)")
5.02
>>> recorded_value("CO[C@]1(CN2CCN3CCCC[C@@H]3C2)/C=C/C[C@H](C)[C@@H](C)S(=O)(=O)NC(=O)c2ccc3c(c2)N(C[C@@H]2CC[C@H]21)C[C@@]1(CCCc2cc(Cl)ccc21)CO3")
2.42
>>> recorded_value("Cc1cc(C(O)CN(C)C)cc2c1ccc1cc(C(C)C)ccc12 (stereo unspecified)")
3.64
>>> recorded_value("Nc1ncnc2c1ncn2Cc1cccc(CCl)c1")
44.6
>>> recorded_value("OCNCCNc1nc2ccccc2c2[nH]c3ccccc3c12")
5.11
>>> recorded_value("N#CC1C=Cc2ccccc2N1C(=O)Oc1ccccc1 (stereo unspecified)")
58.7
>>> recorded_value("O=C1c2ccccc2C(=O)N1c1nc(-c2ccc(Cl)cc2)cc(N2N=C(c3ccc(Br)cc3)CC2c2ccccc2)n1 (stereo unspecified)")
2.62
>>> recorded_value("COc1cc([N+](=O)[O-])c2ncccc2c1[N+](=O)[O-]")
15.1

Could you now look at the following molecule, please?
query: Which TGI is reported with MDA-MB-435 for this entry: `COc1ccc(CCN2CCc3c(C)c(C#N)c4nc5ccccc5n4c32)cc1OC` ?
result: 45
